- assay-comment: Absorption spectrum in ethyl acetate solution (spectrophotometer UV-2400PC)
- Format: physicochemical
- test-conditions: 450 nm
measurement-kind: Abs value at 450 nm when normalized to Abs = 1.0 at λmax

**Q:** What measured Abs value at 450 nm when normalized to Abs = 1.0 at λmax goes with CC1CC(C(C)(C)C)C(OC(=O)c2c(-c3ccccc3)c3[n](c2NC(=O)c2cccc(C(F)(F)F)c2)[Zn-]([OH])[N+]2=C(NC(=O)C(C)Sc4cc(C(=O)O)cc(C(=O)O)c4)C(C#N)=C(c4ccccc4)C2=C3)C(C(C)(C)C)C1 (centres unmarked) ?
**A:** 0.0089

**Q:** What measured Abs value at 450 nm when normalized to Abs = 1.0 at λmax goes with CC1=C(C(=O)OC2C(C(C)(C)C)CC(C)CC2C(C)(C)C)C(NC(=O)c2ccc(F)c(F)c2)=[N+]2C1=Cc1c(C)c(C(=O)OC3C(C(C)(C)C)CC(C)CC3C(C)(C)C)c(NC(=O)c3ccc(F)c(F)c3)[n]1[Zn-]2[OH] (centres unmarked) ?
**A:** 0.0084

====

- assay-comment: Absorption spectrum in ethyl acetate solution (spectrophotometer UV-2400PC)
- Assay type: physicochemical
- test-conditions: 450 nm
measurement-kind: Abs value at 450 nm when normalized to Abs = 1.0 at λmax
Lab note: write the figure by itself, no unit.

**Q:** What measured Abs value at 450 nm when normalized to Abs = 1.0 at λmax goes with CC1CC(C(C)(C)C)C(OC(=O)C2=C(c3ccccc3)C3=Cc4c(-c5ccccc5)c(C(=O)OC5C(C(C)(C)C)CC(C)CC5C(C)(C)C)c(NC(=O)c5ccc(F)c(Br)c5)[n]4[Zn-]([OH])[N+]3=C2NC(=O)c2ccc(F)c(Br)c2)C(C(C)(C)C)C1 (centres unmarked) [IIb-24] ?
**A:** 0.091

**Q:** What measured Abs value at 450 nm when normalized to Abs = 1.0 at λmax goes with CC1CC(C(C)(C)C)C(OC(=O)C2=C(c3ccccc3)C3=Cc4c(-c5ccccc5)c(C(=O)OC5C(C(C)(C)C)CC(C)CC5C(C)(C)C)c(NC(=O)c5cc(C(F)(F)F)cc(C(F)(F)F)c5)[n]4[Zn-]([OH])[N+]3=C2NC(=O)c2cc(C(F)(F)F)cc(C(F)(F)F)c2)C(C(C)(C)C)C1 (centres unmarked) [IIb-14] ?
**A:** 0.01

**Q:** What measured Abs value at 450 nm when normalized to Abs = 1.0 at λmax goes with Cc1c(C(=O)OC2C(C(C)(C)C)CC(C)CC2C(C)(C)C)c(NC(=O)c2cc(F)cc(F)c2)[n]2c1C=C1C(c3ccccc3)=C(C#N)C(NC(=O)C(C)Sc3cc(C(=O)O)cc(C(=O)O)c3)=[N+]1[Zn-]2[OH] (centres unmarked) [Ia-38] ?
**A:** 0.0191

**Q:** What measured Abs value at 450 nm when normalized to Abs = 1.0 at λmax goes with CC1CC(C(C)(C)C)C(OC(=O)c2c(-c3ccccc3)c3[n](c2NC(=O)c2cc(F)ccc2NS(C)(=O)=O)[Zn-]([OH])[N+]2=C(NC(=O)C(C)Sc4cc(C(=O)O)cc(C(=O)O)c4)C(C#N)=C(c4ccccc4)C2=C3)C(C(C)(C)C)C1 (centres unmarked) [Ib-49] ?
**A:** 0.0116

**Q:** What measured Abs value at 450 nm when normalized to Abs = 1.0 at λmax goes with Cc1c(C(=O)OC2C(C(C)(C)C)CC(C)CC2C(C)(C)C)c(NC(=O)c2ccc(C(F)(F)F)cc2)[n]2c1C=C1C(c3ccccc3)=C(C#N)C(NC(=O)C(C)Sc3cc(C(=O)O)cc(C(=O)O)c3)=[N+]1[Zn-]2[OH] (centres unmarked) [Ia-23] ?
**A:** 0.0099

**Q:** What measured Abs value at 450 nm when normalized to Abs = 1.0 at λmax goes with Cc1c(C(=O)OC2C(C(C)(C)C)CC(C)CC2C(C)(C)C)c(NC(=O)c2ccc(F)c(F)c2)[n]2c1C=C1C(c3ccccc3)=C(C#N)C(NC(=O)C(C)Sc3cc(C(=O)O)cc(C(=O)O)c3)=[N+]1[Zn-]2[OH] (centres unmarked) [Ia-35] ?
**A:** 0.0106

**Q:** What measured Abs value at 450 nm when normalized to Abs = 1.0 at λmax goes with CC1CC(C(C)(C)C)C(OC(=O)C2=C(c3ccccc3)C3=Cc4c(-c5ccccc5)c(C(=O)OC5C(C(C)(C)C)CC(C)CC5C(C)(C)C)c(NC(=O)c5c(F)c(F)c(F)c(F)c5F)[n]4[Zn-]([OH])[N+]3=C2NC(=O)c2c(F)c(F)c(F)c(F)c2F)C(C(C)(C)C)C1 (centres unmarked) [IIb-40] ?
**A:** 0.0087

**Q:** What measured Abs value at 450 nm when normalized to Abs = 1.0 at λmax goes with CC1CC(C(C)(C)C)C(OC(=O)c2c(-c3ccccc3)c3[n](c2NC(=O)c2cc(C(F)(F)F)cc(C(F)(F)F)c2)[Zn-]([OH])[N+]2=C(NC(=O)C(C)Sc4cc(C(=O)O)cc(C(=O)O)c4)C(C#N)=C(c4ccccc4)C2=C3)C(C(C)(C)C)C1 (centres unmarked) [Ib-41] ?
**A:** 0.0195
